Where do the numbers come from? From the supplement of paper PMC10290057.

Please respond with reported AC50 cell viability for every item in the list.
# Test system: HCT116;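 note: HCT116 colorectal carcinoma cells screened at five concentrations per compound, luminescent viability scaled between DMSO wells and empty wells on each plate, curves fitted per compound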
# assay-comment: AC50 cell viability (CellTiter-Glo); higher = less potent
# assay-context: 48 h
Structures can show the parent of a compound that is named as a salt.
Answers are plain numbers, in µM.

// solved cases for AC50 cell viability follow
INSERT INTO assay_data (compound, unit_annotation, reported) VALUES
  ('CCNC(=O)Nc1ccc(Oc2ncnc(N)c2/C=N/OC)cc1Cl', 'µM', 23.5),
  ('Cn1ncc(Cl)c1-c1cc(C(=O)N[C@H](CN)Cc2cccc(F)c2)sc1Cl', 'µM', 14.8),
  ('Cc1cc(C)c(C/N=C(\O)c2cc(-c3ccc(N4CCN(C)CC4)nc3)cc3c2c(C)cn3C(C)C)c(O)n1 [GSK-503]', 'µM', 23.5);

I would be grateful if you could provide AC50 cell viability for each of the following entries.
1. C[N]1C=NC=C1[C@@](N)(C2=CC=C(Cl)C=C2)C3=CC=C4N(C)C(=O)\C=C(\C5=CC=CC(=C5)Cl)C4=C3 [Tipifarnib]
2. CC[C@H](CO)Nc1nc(NCc2ccccc2)c2ncn(C(C)C)c2n1 [Seliciclib]
3. CC(C)N1N/C(=C2\C=c3cc(O)ccc3=N2)c2c(N)ncnc21 [Torkinib]
4. CCCCc1oc2ccc(N[S+](C)(=O)[O-])cc2c1C(=O)c1ccc(OCCCN(CCCC)CCCC)cc1 [Dronedarone hydrochloride]

Key:
[9.34, 10.5, 5.25, 8.33]
